These measurements were taken from patent US20230365675A1.

Biological target: Biotinylated CD33 protein (UniProt P20138)
Sequence (P20138 18-259 limits assumed): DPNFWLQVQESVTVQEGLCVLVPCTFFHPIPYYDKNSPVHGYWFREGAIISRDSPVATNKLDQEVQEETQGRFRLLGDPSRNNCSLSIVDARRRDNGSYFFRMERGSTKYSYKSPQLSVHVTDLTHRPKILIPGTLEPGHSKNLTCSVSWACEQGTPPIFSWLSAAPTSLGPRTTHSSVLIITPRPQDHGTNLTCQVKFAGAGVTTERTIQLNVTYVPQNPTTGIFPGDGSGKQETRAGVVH
Test: Octet competition on biotinylated CD33; competitor 430

>  <BINDER>
sdCD33_4 (VHH) VHH: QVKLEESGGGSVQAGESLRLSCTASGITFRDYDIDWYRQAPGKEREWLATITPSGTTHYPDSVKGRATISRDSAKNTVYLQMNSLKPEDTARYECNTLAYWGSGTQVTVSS

>  <Octet signal>
0.0905

$$$$
>  <BINDER>
sdCD33_3 (VHH) VHH: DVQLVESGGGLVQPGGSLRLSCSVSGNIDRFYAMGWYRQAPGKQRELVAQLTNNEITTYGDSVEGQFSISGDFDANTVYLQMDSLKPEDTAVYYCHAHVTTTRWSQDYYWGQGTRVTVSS

>  <Octet signal>
0.231

$$$$
>  <BINDER>
sdCD33_5 (VHH, sdAb from a naive llama phage library; also called 413; sdAb413) VHH: QVQLQESGGGLVQPGGSLRLSCAASGSVFSIYAMAWYRQAPGKQRELVAVITSGGATNYADSVKGRFTISRDIAKKTLYLQMNTLKPEDTAVYYCYAHLLIQPFDRFYDYWGQGTQVTVSS

>  <Octet signal>
0.63

$$$$
